Give %Inh for every item shown.
- Tested on: NDR2
- EXPERIMENTAL CONDITIONS: concentration: 1 μM, replicates: in singlicate; n = 1
The reply should contain only the number, in %.

API: value(readout=%Inh, system=NDR2) for record COc1cc(Nc2nccc(-c3c(-c4cccc(NC(=O)c5c(F)cccc5F)c4)nn4ncccc34)n2)cc(OC)c1OC [GSK327238]
0

Give the reported %Inh for Cn1cc(-c2ccc3c(c2)CCN3C(=O)Cc2cccc(F)c2)c2c(N)ncnc21 [GSK2603358] (system: NDR2).
7

Write down the reported %Inh of O=C(Nc1ccccc1F)NC1CCN(c2ccnc(Nc3ccc(F)cc3)n2)CC1 [GSK1379800] , test system: NDR2.
0

Report %Inh for O=C(Nc1cccc(-c2nn3ccccc3c2-c2ccnc(Nc3cccc(F)c3)n2)c1)c1c(F)ccc(F)c1Cl [GSK357952] tested on NDR2.
0

Query for NDR2: what %Inh does the record show for Oc1cc(Nc2ccnc3cc(I)ccc23)ccc1F [GW552771] ?
0

Please provide the recorded %Inh for COc1cccc(NC(=O)NC2CCN(c3ccnc(Nc4cc(OC)c(OC)c(OC)c4)n3)C2)c1 (centres unmarked) [GSK1379763] , tested on NDR2.
0

What reported %Inh corresponds to Nc1ncc(-c2cccnc2)c2scc(-c3ccc4c(c3)CCN4C(=O)Cc3ccccc3)c12 [GSK683281] on NDR2?
0

// lookup %Inh | system=NDR2 | key= O=C(NC1CCN(c2ccnc(Nc3ccc(F)cc3)n2)C1)c1cc2ccccc2s1 (centres unmarked) [GSK1379716]
0

Hi! What's the reported %Inh for CC(C)(C)c1ccc2nccc(Nc3cccc(O)c3)c2c1 [GW856795] on NDR2?
0

What reported %Inh corresponds to Cl.Cl.NCC(NCc1ccc(-c2ccnc3[nH]ccc23)s1)c1ccccc1 (centres unmarked) [GSK1321565] on NDR2?
31

Give NDR2 %Inh for O=C(Nc1cccc(Oc2ccc3nc(NC(=O)C4CC4)cn3n2)c1)c1ccccc1C(F)(F)F
0

Recall the recorded %Inh for CCn1c(-c2nonc2N)nc2c(C#CC(C)(C)O)ncc(OCCCCN)c21.O=C(O)C(F)(F)F.O=C(O)C(F)(F)F [GSK507274] with NDR2 and state it.
0

# query: %Inh | item O=c1[nH]cc(-c2ccc(N3CCOCC3)cc2)c2sc(-c3cn[nH]c3)cc12 [GSK2276055] | system: NDR2
29

Lab request: please report %Inh under test system NDR2 for COc1cc(Nc2ncc3c(C)nc(-c4cc5ccccc5[nH]4)n3n2)cc(OC)c1OC [GW869516]
0

Hi! What's the reported %Inh for COc1cccc(C2=C(Nc3ccc(Cl)c(C(=O)O)c3)C(=O)NC2=O)c1 [SB-390769] on NDR2?
0

Requested read-out %Inh, target or system NDR2, entry Nc1n[nH]c2cnc(-c3ccccc3)cc12 [SB-642124]
0

Hello, I am looking for reported %Inh with NDR2 for COc1cccc(C(=O)Nc2cccc(Oc3ccc4nc(NC(=O)C5CC5)cn4n3)c2)c1 . Could you help?
10

What %Inh appears in the records for this compound with NDR2? Cc1ccc(C(=O)Nc2ccc(Nc3ccnc4cc(-c5nccs5)ccc34)cc2O)cc1.Cl [GW494702]
9

Form field - read-out: %Inh; system: NDR2; submitted item: CC(=O)N1CCN(c2ccc(Nc3nccc(-c4sc(C(C)C)nc4-c4cccc(NS(=O)(=O)c5cccc(Cl)c5)c4)n3)cn2)CC1 [GSK1660437]
0

Value wanted: %Inh (NDR2) of entry Cc1ccc(C(=O)N2CC[C@@H](O)C2)cc1-n1c(C)cc(OCc2ccc(F)cc2F)c(Br)c1=O
0

Recall the recorded %Inh for FC(F)(F)c1ccc(/C=C/c2cncnc2Nc2ccc3[nH]c(Cc4ccccc4)nc3c2)cc1 [GW709199] with NDR2 and state it.
0

%Inh of NCCCC(NC(=O)c1cc(Br)c(-c2ccnc3[nH]ccc23)s1)c1ccccc1.O=C(O)C(F)(F)F.O=C(O)C(F)(F)F (centres unmarked) [GSK1287544] on NDR2?
86

API: value(readout=%Inh, system=NDR2) for record CNC(=O)c1ccccc1Nc1nc(Nc2ccc(N3CCOCC3)cc2)ncc1Cl.Cl [GSK1576028]
91.3

Notebook entry, NDR2 assay: %Inh of Fc1ccc(-c2ncn(C3CCNCC3)c2-c2ccnc(Oc3ccc(-c4ccccc4)cc3)n2)cc1 [SB-245391] = ?
13

Missing value: %Inh, NDR2, entry Cc1ccc(F)c(C(=O)Nc2cccc(-c3nn4ccccc4c3-c3ccnc(Nc4cccc(F)c4)n3)c2)c1F [GSK361061] . Fill in?
0

Find %Inh (NDR2) for the entry c1ccc(Oc2ccc(Nc3ccnc4cc(-c5ccc(CNCCN6CCOCC6)o5)ccc34)cc2)nc1 [GW567145]
40

# returns recorded %Inh (system: NDR2) for COC(=O)Nc1nc2cc(Oc3ccc(NC(=O)Nc4cc(C(F)(F)F)ccc4F)cn3)ccc2[nH]1.Cl.Cl [GW681170]
14

# get_value(readout= %Inh, system= NDR2) for CN1CCN(CCCNc2nccc(-c3c(-c4ccc(F)cc4)nn4cc(C(F)(F)F)ccc34)n2)CC1 [GW621581]
0

Quick check: %Inh on NDR2, item CCCCc1nn2ncccc2c1-c1ccnc(Nc2ccc(N3CCN(C)CC3)cc2)n1 [GW684941] ?
0

// fetch NDR2 %Inh for Nc1ncc(-c2ccc3nccc(-c4ccncc4)c3c2)cc1S(=O)(=O)N1CCOCC1 [GSK1627798]
0

Lab request: please report %Inh under test system NDR2 for CCS(=O)(=O)c1ccc(OC)c(Nc2nccc(-c3c(-c4cccc(NC(=O)c5c(F)cccc5F)c4)nn4ncccc34)n2)c1 [GSK326180];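 note: KINOMEscan kinase panel screen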
0

Under NDR2: %Inh value of O=C(Nc1cccc(-c2nn3ccccc3c2-c2ccnc(Nc3cccc(C(F)(F)F)c3)n2)c1)c1c(F)cccc1F [GSK292658] ?
0
